FYI, the data here is from the supplement of paper PMC11061612.

test system: OC-314 (Ovarian Carcinoma); assay: combination Emax (second highest fraction inhibited in the dose matrix, 72 h); higher = more inhibition; extreme values may be limits of the assay
Response key: yes means combination Emax >= 0.8; no means combination Emax < 0.8.

molecule	category
CN(CCO)CC[C@H](CSc1ccccc1)Nc1ccc(S(=O)(=O)NC(=O)c2ccc(N3CCC([C@@H](O)c4ccccc4-c4ccc(Cl)cc4)CC3)cc2)cc1S(=O)(=O)C(F)(F)F [AZD4320] + CN(C)CCCOc1ccc(-c2ccc3ncc4c(c3c2)n(C2CCOCC2)c(=O)n4C)cn1 [AZD0156] (first compound max 1 µM, 7x7, partner max 1 µM)	no
CN(CCO)CC[C@H](CSc1ccccc1)Nc1ccc(S(=O)(=O)NC(=O)c2ccc(N3CCC([C@@H](O)c4ccccc4-c4ccc(Cl)cc4)CC3)cc2)cc1S(=O)(=O)C(F)(F)F [AZD4320] + C=CCn1c(=O)c2cnc(Nc3ccc(N4CCN(C)CC4)cc3)nc2n1-c1cccc(C(C)(C)O)n1 [AZD1775] (first compound max 1 µM, partner max 1 µM)	no
CC(=O)c1c(C)c2cnc(Nc3ccc(N4CCNCC4)cn3)nc2n(C2CCCC2)c1=O [Palbociclib] + Cc1c2c(nn1C)CSCc1cc(n(C)n1)CSc1cc(c3ccccc3c1)OCCCc1c(C(=O)O)n(C)c3c-2c(Cl)ccc13 [AZD5991] (first compound max 10 µM, 7x7, partner max 1 µM)	no
CC1(C)CCC(CN2CCN(c3ccc(C(=O)NS(=O)(=O)c4ccc(NCC5CCOCC5)c([N+](=O)[O-])c4)c(Oc4cnc5[nH]ccc5c4)c3)CC2)=C(c2ccc(Cl)cc2)C1 [Venetoclax] + C=CCn1c(=O)c2cnc(Nc3ccc(N4CCN(C)CC4)cc3)nc2n1-c1cccc(C(C)(C)O)n1 [AZD1775] (first compound max 1 µM, partner max 1 µM)	yes

###

system: HDLM-2 (Hodgkin's Lymphoma); experiment: Bliss excess, mean over the matrix (fraction); higher = more synergy

molecule	Bliss excess
CN(CCO)CC[C@H](CSc1ccccc1)Nc1ccc(S(=O)(=O)NC(=O)c2ccc(N3CCC([C@@H](O)c4ccccc4-c4ccc(Cl)cc4)CC3)cc2)cc1S(=O)(=O)C(F)(F)F [AZD4320] + CC(=O)O[C@H]1C(=O)[C@@]2(C)[C@H]([C@H](OC(=O)c3ccccc3)[C@]3(O)C[C@H](OC(=O)[C@H](O)[C@@H](NC(=O)c4ccccc4)c4ccccc4)C(C)=C1C3(C)C)[C@]1(OC(C)=O)CO[C@@H]1C[C@@H]2O [Paclitaxel] (first compound max 1 µM, 7x7, partner max 3 µM)	0.0159

###

test system: RT-112 (Bladder Carcinoma); experiment: Bliss excess, mean over the matrix (fraction); higher = more synergy
If the reported Bliss excess equals or exceeds 0.07, assign satisfied. If not, assign not satisfied.

compound	category
C=CCn1c(=O)c2cnc(Nc3ccc(N4CCN(C)CC4)cc3)nc2n1-c1cccc(C(C)(C)O)n1 [AZD1775] + C1CN(CCC1(C(=O)N[C@@H](CCO)C2=CC=C(C=C2)Cl)N)C3=NC=NC4=C3C=CN4 [Capivasertib] (first compound max 3 µM, partner max 3 µM)	not satisfied
CN(CCO)CC[C@H](CSc1ccccc1)Nc1ccc(S(=O)(=O)NC(=O)c2ccc(N3CCC([C@@H](O)c4ccccc4-c4ccc(Cl)cc4)CC3)cc2)cc1S(=O)(=O)C(F)(F)F [AZD4320] + CS(=O)(=O)CCNCc1ccc(-c2ccc3ncnc(Nc4ccc(OCc5cccc(F)c5)c(Cl)c4)c3c2)o1 [Lapatinib] (first compound max 1 µM, 7x7, partner max 10 µM)	not satisfied
C[C@@H](Oc1cc(-c2cnn(C3CCNCC3)c2)cnc1N)c1c(Cl)ccc(F)c1Cl [Crizotinib] + Cn1cnc2c(F)c(Nc3ccc(Br)cc3Cl)c(C(=O)NOCCO)cc21 [Selumetinib] (first compound max 10 µM, 7x7, partner max 10 µM)	not satisfied
N#Cc1cnc(Nc2cc(NC[C@H]3CNCCO3)c(C(F)(F)F)cn2)cn1 [SRA737] + Nc1ccn([C@@H]2O[C@H](CO)[C@@H](O)C2(F)F)c(=O)n1 [Gemcitabine] (first compound max 10 µM, 7x7, partner max 0.3 µM)	satisfied
Cc1cc2ncnn2cc1Nc1ncc2c(n1)n(C1CCOCC1)c(=O)n2C [AZD7648] + C[C@@H]1COCCN1C2=NC(=NC(=C2)C3(CC3)[S@](=N)(=O)C)C4=C5C=CNC5=NC=C4 [AZD6738] (first compound max 10 µM, 7x7, partner max 10 µM)	satisfied
CN(CCO)CC[C@H](CSc1ccccc1)Nc1ccc(S(=O)(=O)NC(=O)c2ccc(N3CCC([C@@H](O)c4ccccc4-c4ccc(Cl)cc4)CC3)cc2)cc1S(=O)(=O)C(F)(F)F [AZD4320] + Cc1cc2ncnn2cc1Nc1ncc2c(n1)n(C1CCOCC1)c(=O)n2C [AZD7648] (first compound max 1 µM, 7x7, partner max 10 µM)	not satisfied
CN(CCO)CC[C@H](CSc1ccccc1)Nc1ccc(S(=O)(=O)NC(=O)c2ccc(N3CCC([C@@H](O)c4ccccc4-c4ccc(Cl)cc4)CC3)cc2)cc1S(=O)(=O)C(F)(F)F [AZD4320] + CCN(CCO)CCCOc1ccc2c(Nc3cc(CC(=O)Nc4cccc(F)c4)[nH]n3)ncnc2c1 [AZD2811] (first compound max 1 µM, 7x7, partner max 1 µM)	satisfied
CC1(C)CCC(CN2CCN(c3ccc(C(=O)NS(=O)(=O)c4ccc(NCC5CCOCC5)c([N+](=O)[O-])c4)c(Oc4cnc5[nH]ccc5c4)c3)CC2)=C(c2ccc(Cl)cc2)C1 [Venetoclax] + C=CCn1c(=O)c2cnc(Nc3ccc(N4CCN(C)CC4)cc3)nc2n1-c1cccc(C(C)(C)O)n1 [AZD1775] (first compound max 1 µM, partner max 1 µM)	satisfied
C[C@@H]1COCCN1c1cc(C2([S@](C)(=N)=O)CC2)nc(-c2ccnc3[nH]ccc23)n1 [AZD6738] + Nc1ccn([C@@H]2O[C@H](CO)[C@@H](O)C2(F)F)c(=O)n1 [Gemcitabine] (first compound max 10 µM, 7x7, partner max 0.3 µM)	satisfied
C=CCn1c(=O)c2cnc(Nc3ccc(N4CCN(C)CC4)cc3)nc2n1-c1cccc(C(C)(C)O)n1 [AZD1775] + O=C(c1cc(Cc2n[nH]c(=O)c3ccccc23)ccc1F)N1CCN(C(=O)C2CC2)CC1 [Olaparib] (first compound max 1 µM, partner max 10 µM)	not satisfied
